- Test system: Histophilus somni
- assay.overview: minimum inhibitory concentration (MIC)
- recorded.conditions: isolate (source animal id): 99
Give minimum inhibitory concentration for every item shown.
Answers are plain numbers, in µg/mL.

Past entries and their recorded results:
CC[C@H]1OC(=O)C[C@@H](O)[C@H](C)[C@@H](O[C@@H]2O[C@H](C)[C@@H](O)[C@H](N(C)C)[C@H]2O)[C@@H](CCN2CCCCC2)C[C@@H](C)C(=O)/C=C/C(C)=C/[C@@H]1CN1CCCCC1; 2
CS(=O)(=O)c1ccc([C@@H](O)[C@@H](CF)NC(=O)C(Cl)Cl)cc1; 0.5

--- query ---
IN: What is its minimum inhibitory concentration for Histophilus somni? Entry: CC[C@H]1OC(=O)C[C@@H](O)[C@H](C)[C@@H](O[C@@H]2O[C@H](C)[C@@H](O[C@H]3C[C@@](C)(O)[C@@H](O)[C@H](C)O3)[C@H](N(C)C)[C@H]2O)[C@@H](CC=O)C[C@@H](C)C(=O)/C=C/C(C)=C/[C@@H]1CO[C@@H]1O[C@H](C)[C@@H](O)[C@@H](OC)[C@H]1OC
OUT: 4

* * *

For each entry below, report its minimum inhibitory concentration value.
- Test system: Mannheimia haemolytica
- assay.overview: minimum inhibitory concentration (MIC)
- recorded.conditions: isolate (source animal id): 50

Answered examples (4):
COc1cc(Cc2cnc(N)nc2N)cc(OC)c1OC.Cc1cc(NS(=O)(=O)c2ccc(N)cc2)no1 [trimethoprim-sulfamethoxazole]; ≤ 2 µg/mL
CNC(C)C1CCC(N)C(OC2C(N)CC(N)C(OC3OCC(C)(O)C(NC)C3O)C2O)O1 (stereo not given) [Gentamicin]; 4 µg/mL
CN1C[C@@H]2C[C@H]1CN2c1cc2c(cc1F)c(=O)c(C(=O)O)cn2C1CC1 [Danofloxacin]; 0.5 µg/mL
CN[C@@H]1[C@H](O)[C@H](NC)[C@H]2O[C@@]3(O)C(=O)C[C@@H](C)O[C@H]3O[C@@H]2[C@H]1O [Spectinomycin]; 32 µg/mL

IN: Any idea what its minimum inhibitory concentration is? The molecule is CC[C@H]1OC(=O)C[C@@H](O)[C@H](C)[C@@H](O[C@@H]2O[C@H](C)[C@@H](O)[C@H](N(C)C)[C@H]2O)[C@@H](CCN2CCCCC2)C[C@@H](C)C(=O)/C=C/C(C)=C/[C@@H]1CN1CCCCC1 [Tildipirosin]
OUT: 16 µg/mL

* * *

- System: Enterococcus spp.
- assay.overview: minimum inhibitory concentration (MIC)
- recorded.conditions: isolate (source animal id): 211
endpoint: minimum inhibitory concentration (µg/mL)
One number for each entry, in µg/mL.

Below, 5 compounds whose answers are already recorded.
CCN1CCN(c2cc3c(cc2F)c(=O)c(C(=O)O)cn3C2CC2)CC1; 0.5
CC1(C)S[C@@H]2[C@H](NC(=O)[C@H](N)c3ccccc3)C(=O)N2[C@H]1C(=O)O; 1
CS(=O)(=O)c1ccc([C@@H](O)[C@@H](CF)NC(=O)C(Cl)Cl)cc1; 2
CNC(C)C1CCC(N)C(OC2C(N)CC(N)C(OC3OCC(C)(O)C(NC)C3O)C2O)O1 (stereo not drawn); 8
CN1C[C@@H]2C[C@H]1CN2c1cc2c(cc1F)c(=O)c(C(=O)O)cn2C1CC1; 1

Attention now turns to another entry.
IN: What minimum inhibitory concentration value was documented for this compound, CC[C@H]1OC(=O)C[C@@H](O)[C@H](C)[C@@H](O[C@@H]2O[C@H](C)[C@@H](O[C@H]3C[C@@](C)(O)[C@@H](O)[C@H](C)O3)[C@H](N(C)C)[C@H]2O)[C@@H](CC=O)C[C@@H](C)C(=O)/C=C/C(C)=C/[C@@H]1CO[C@@H]1O[C@H](C)[C@@H](O)[C@@H](OC)[C@H]1OC ?
OUT: 2

* * *

- Tested on: Pasteurella multocida
- assay.overview: minimum inhibitory concentration (MIC)
- recorded.conditions: isolate (source animal id): 174
endpoint: minimum inhibitory concentration

Working through the 2 molecules below one at a time, give minimum inhibitory concentration for each.
1. CN[C@@H]1[C@H](O)[C@H](NC)[C@H]2O[C@@]3(O)C(=O)C[C@@H](C)O[C@H]3O[C@@H]2[C@H]1O [Spectinomycin]
2. CC[C@H]1OC(=O)C[C@@H](O)[C@H](C)[C@@H](O[C@@H]2O[C@H](C)[C@@H](O)[C@H](N(C)C)[C@H]2O)[C@@H](CCN2CCCCC2)C[C@@H](C)C(=O)/C=C/C(C)=C/[C@@H]1CN1CCCCC1 [Tildipirosin]

OUT:
1. > 64 µg/mL
2. ≤ 1 µg/mL

* * *

- System: Escherichia coli
- assay.overview: minimum inhibitory concentration (MIC)
- recorded.conditions: isolate (source animal id): 141
Please go through the items and note down their minimum inhibitory concentration.

Consider the following illustrative entries.
CC1(C)S[C@@H]2[C@H](NC(=O)Cc3ccccc3)C(=O)N2[C@H]1C(=O)O [Penicillin]; > 8 µg/mL
CN[C@@H]1[C@H](O)[C@H](NC)[C@H]2O[C@@]3(O)C(=O)C[C@@H](C)O[C@H]3O[C@@H]2[C@H]1O [Spectinomycin]; > 64 µg/mL
CCCN1C[C@H](C)[C@@H](O)[C@](C)(O)[C@@H](CC)OC(=O)[C@H](C)[C@@H](O[C@H]2C[C@@](C)(OC)[C@@H](O)[C@H](C)O2)[C@H](C)[C@@H](O[C@@H]2O[C@H](C)C[C@H](N(C)C)[C@H]2O)[C@](C)(O)C[C@H]1C [Gamithromycin]; > 8 µg/mL
C=C[C@]1(C)C[C@@H](OC(=O)CSCCN(CC)CC)[C@]2(C)[C@H](C)CC[C@]3(CCC(=O)[C@H]32)[C@@H](C)[C@@H]1O [Tiamulin]; > 32 µg/mL
NC[C@@H]1O[C@H](O[C@H]2[C@@H](O)[C@H](O[C@@H]3[C@@H](O)[C@H](N)C[C@H](N)[C@H]3O[C@H]3O[C@H](CN)[C@@H](O)[C@H](O)[C@H]3N)O[C@@H]2CO)[C@H](N)[C@@H](O)[C@@H]1O [Neomycin]; > 32 µg/mL

Could you tell me minimum inhibitory concentration for each of these compounds? They are listed below.
1. CN(C)[C@@H]1C(O)=C(C(N)=O)C(=O)[C@@]2(O)C(O)=C3C(=O)c4c(O)cccc4[C@@](C)(O)[C@H]3C[C@@H]12 [Tetracycline]
2. CC[C@H]1OC(=O)C[C@@H](O)[C@H](C)[C@@H](O[C@@H]2O[C@H](C)[C@@H](O)[C@H](N(C)C)[C@H]2O)[C@@H](CCN2CCCCC2)C[C@@H](C)C(=O)/C=C/C(C)=C/[C@@H]1CN1CCCCC1 [Tildipirosin]

OUT:
["> 8 µg/mL", "4 µg/mL"]

* * *

- Tested on: Escherichia coli
- assay.overview: minimum inhibitory concentration (MIC)
- recorded.conditions: isolate (source animal id): 110
Give measured minimum inhibitory concentration for each item. Keep answers brief.

Completed entries (count: 3):
C=C[C@]1(C)C[C@@H](OC(=O)CSCCN(CC)CC)[C@]2(C)[C@H](C)CC[C@]3(CCC(=O)[C@H]32)[C@@H](C)[C@@H]1O; > 32 mg/L
CNC(C)C1CCC(N)C(OC2C(N)CC(N)C(OC3OCC(C)(O)C(NC)C3O)C2O)O1 (centres undefined); ≤ 1 mg/L
COc1cc(Cc2cnc(N)nc2N)cc(OC)c1OC.Cc1cc(NS(=O)(=O)c2ccc(N)cc2)no1; ≤ 2 mg/L

IN: Would you kindly share the measured minimum inhibitory concentration for CCCN1C[C@H](C)[C@@H](O)[C@](C)(O)[C@@H](CC)OC(=O)[C@H](C)[C@@H](O[C@H]2C[C@@](C)(OC)[C@@H](O)[C@H](C)O2)[C@H](C)[C@@H](O[C@@H]2O[C@H](C)C[C@H](N(C)C)[C@H]2O)[C@](C)(O)C[C@H]1C ?
OUT: 4 mg/L

* * *

- Tested on: Pasteurella multocida
- assay.overview: minimum inhibitory concentration (MIC)
- recorded.conditions: isolate (source animal id): 170
For each record, write down the corresponding minimum inhibitory concentration.

CO/N=C(\C(=O)N[C@@H]1C(=O)N2C(C(=O)O)=C(CSC(=O)c3ccco3)CS[C@H]12)c1csc(N)n1 [Ceftiofur]; ≤ 0.25 µg/mL

IN: Given the compound CC[C@H]1OC(=O)C[C@@H](O)[C@H](C)[C@@H](O[C@@H]2O[C@H](C)[C@@H](O[C@H]3C[C@@](C)(O)[C@@H](O)[C@H](C)O3)[C@H](N(C)C)[C@H]2O)[C@@H](CC=O)C[C@@H](C)C(=O)/C=C/C(C)=C/[C@@H]1CO[C@@H]1O[C@H](C)[C@@H](O)[C@@H](OC)[C@H]1OC [Tylosin] , what is its reported minimum inhibitory concentration?
OUT: > 32 µg/mL

* * *

Assign minimum inhibitory concentration to each entry below.
- System: Escherichia coli
- assay.overview: minimum inhibitory concentration (MIC)
- recorded.conditions: isolate (source animal id): 157

Known results for compounds:
COc1cc(Cc2cnc(N)nc2N)cc(OC)c1OC.Cc1cc(NS(=O)(=O)c2ccc(N)cc2)no1; ≤ 2 µg/mL
CS(=O)(=O)c1ccc([C@@H](O)[C@@H](CF)NC(=O)C(Cl)Cl)cc1; > 8 µg/mL
CC[C@H]1OC(=O)C[C@@H](O)[C@H](C)[C@@H](O[C@@H]2O[C@H](C)[C@@H](O)[C@H](N(C)C)[C@H]2O)[C@@H](CCN2C[C@H](C)C[C@H](C)C2)C[C@@H](C)C(=O)/C=C/C(C)=C/[C@@H]1CO[C@@H]1O[C@H](C)[C@@H](O)[C@@H](OC)[C@H]1OC; > 16 µg/mL

# batch size: 2; output minimum inhibitory concentration per entry
1. CN[C@@H]1[C@H](O)[C@H](NC)[C@H]2O[C@@]3(O)C(=O)C[C@@H](C)O[C@H]3O[C@@H]2[C@H]1O
2. CC[C@H]1OC(=O)C[C@@H](O)[C@H](C)[C@@H](O[C@@H]2O[C@H](C)[C@@H](O)[C@H](N(C)C)[C@H]2O)[C@@H](CCN2CCCCC2)C[C@@H](C)C(=O)/C=C/C(C)=C/[C@@H]1CN1CCCCC1

OUT:
> 64 µg/mL
4 µg/mL
